Target: Glucose transporter (Leishmania mexicana)
Assay: ST_JUDE_LEISH: Cytotoxicity at 2uM final concentration against transgenic Leishmania Mexicana promastigotes LmGT2 that are glucose transport deficient and complemented with the L. Mexicana glucose transporter 2. Activity is measured by DNA content using SYBR green in vitro
Format: functional
quantityMeasured: inhibition

inhibition reading for CCOc1cc(NCCCNc2ncc([N+](=O)[O-])cc2C)nc2ccccc12 : 0.83%

inhibition reading for CC(=O)Nc1ccc(C(=O)Nc2ccc(-c3cccc(-c4nc5cc(C(F)(F)F)ccc5[nH]4)c3)cc2)cn1 : -0.11%

inhibition reading for CN1CCN(c2cccc(NC(=O)c3ccc(-c4ccc(C#N)cc4)cc3)c2)CC1 : 5.96%

inhibition reading for Cc1cc(N[C@@H](Cc2ccccc2)C(=O)NCCOc2ccccc2)nc(Nc2ccccc2)n1 : 2.62%

inhibition reading for FC(F)(F)c1ccc2[nH]c(-c3ccc(-c4ccc(CN5CCN(c6cnccn6)CC5)cc4)s3)nc2c1 : -2.19%

inhibition reading for N#Cc1ccc(-n2cc(C(=O)Nc3ccc4c(c3)CCN(C3CCC3)CC4)c(C(F)(F)F)n2)cc1 : 4.42%

inhibition reading for CC(=O)Nc1nc(N)c2c(ccc3c2ccn3CC(C)C)n1 : -0.95%

inhibition reading for N#Cc1ccc2[nH]c(-c3cc(-c4cccc(F)c4)cnc3N)nc2c1 : 3.77%

inhibition reading for O=C(CCNc1ccnc(NCCc2ccc(F)cc2)n1)Nc1ccccc1 : 3.24%

inhibition reading for Nc1nc(N)c2c(Cl)c(N(Cc3ccccc3)Cc3ccccc3)ccc2n1 : 7.75%

====

Assign inhibition to each entry below.
Target: Glucose transporter (Leishmania mexicana)
Test: ST_JUDE_LEISH: Cytotoxicity at 2uM final concentration against transgenic Leishmania Mexicana promastigotes LmGT2 that are glucose transport deficient and complemented with the L. Mexicana glucose transporter 2. Activity is measured by DNA content using SYBR green in vitro
Type: functional
State the answer as a number, implicitly in %.

inhibition reading for O=C(NCC1CCN(CC2CCCCC2)C1)c1cc(-c2cccc(Cl)c2)cs1 (centres undefined) : 1.14

inhibition reading for COc1ccc(CNC2CCN(C)CC2)cc1-c1ccc(S(=O)(=O)NCc2ccccc2)c(F)c1 : -1.2

inhibition reading for CC(C)C[C@@H](NC(=O)OC(C)(C)C)C(=O)Nc1ccc(Cc2ccc(NC(=O)[C@@H](CC(C)C)NC(=O)OC(C)(C)C)cc2)cc1 : 0.63

inhibition reading for Cc1ccc(Cc2c[nH]c(NCCSCc3ccc(CN(C)C)s3)nc2=O)cn1 : 2.78

inhibition reading for C=CCN1C(=O)c2[nH]nc(-c3cc(C)c(C)cc3O)c2C1c1cccc(Br)c1 (centres undefined) : 1.27

inhibition reading for COc1cccc2c(NN=Cc3cccc(Cl)c3)ccnc12 : 1.77

inhibition reading for CS(=O)(=O)c1cccc(-c2cnc(N)c3cc(-c4ccc5c(c4)OCO5)ccc23)c1 : 7.36

inhibition reading for Cc1cccc2nc(-c3cccc(-c4ccc(CNCCNC(=O)c5ccnn5C)cc4)c3)[nH]c12 : -2.92

inhibition reading for O=C(O)c1ccc2c(c1)N(C(=O)CNCc1ccc(F)cc1)CC(=O)N2CCCc1ccccc1 : -2.25

====

Biological target: Glucose transporter (Leishmania mexicana) (UniProt O61059)
Experiment: ST_JUDE_LEISH: Cytotoxicity at 2uM final concentration against transgenic Leishmania Mexicana promastigotes LmGT2 that are glucose transport deficient and complemented with the L. Mexicana glucose transporter 2. Activity is measured by DNA content using SYBR green in vitro
Type: functional
Assign inhibition to each entry below.
State the answer as a number, implicitly in %.

inhibition reading for Fc1cc(Cl)ccc1Nc1ccnc2cc(-c3scnc3CNCCN3CCOCC3)ccc12 : 0.33

inhibition reading for Cc1cc(NC(=O)NCCN2CCC(NS(=O)(=O)c3ccccc3F)CC2)c2ccccc2n1 : 0.24

inhibition reading for CCC[C@@H]([C@@H](CC1CCC(C)CC1)C(=O)N[C@@H](CO)C(=O)Nc1nccs1)N(O)C=O (some centres undefined) : 1.54

inhibition reading for O=C(Nc1ccc(Oc2ccccc2)cc1)N(CCN1CCCC1)Cc1ccc(-c2ccc(CN3CCNCC3)cc2)cc1 : 0.38

inhibition reading for Cc1ccnc(NC(=O)c2cc(-c3cccc([N+](=O)[O-])c3)nc3onc(C)c23)c1 : 4.35

inhibition reading for Fc1cccc(C=NNc2ccnc3cc(Cl)ccc23)c1 : 0.64

inhibition reading for CCN(CC)CCNc1cc(C)nc(NC(=N)Nc2ccc(Cl)cc2)n1 : 5.89

inhibition reading for CC(CN(C)C)C(=O)Nc1cccc(-c2ccc(-c3nc4ccccc4[nH]3)cc2)c1 (centres undefined) : 7.36

inhibition reading for CC(C)S(=O)(=O)N1CCN(Cc2ccc3c(c2)nc(NC(=O)c2ccsc2)n3C[C@H](O)c2ccccc2)CC1 : -0.17
